- System: ivy-leaved morning glory (Ipomoea hederacea)
- Run description: Test G Pre-Emergence Protocol
- Format: in vivo
- Run parameters: Ipomoea, pre-emergence, 312 h, 62.5 g ai/ha, evaluated after 13 days, 100=total damage to plant, 0=no damage to plant, read-out: Morningglory, Ivy-leaved damage rating
Reported endpoint: pest or weed control at 62.5 g/ha (%)
One number for each entry, in %.

// each listed molecule needs a value for pest or weed control at 62.5 g/ha
1. Cc1cc(C2CN(C)C(=O)C2C(=O)Nc2cccc(F)c2F)cc(C(F)(F)F)c1 (stereo not shown)
2. CN1C[C@H](c2ccnc(C(C)(C)C)n2)[C@@H](C(=O)Nc2cccc(F)c2F)C1=O (racemic)
3. CN1C[C@H](c2ccc(F)c(C#N)c2)[C@@H](C(=O)Nc2ccccc2S(C)(=O)=O)C1=O (racemic)
4. CN1CCC(NC(=O)[C@H]2C(=O)N(C)C[C@@H]2c2ccc(C(F)(F)F)cc2)C1=O (mixture of isomers)
5. CN1C[C@H](c2ccc(Cl)cc2)[C@@H](C(=O)Nc2cccnc2F)C1=O

Ans:
1: 0; 2: 0; 3: 0; 4: 0; 5: 30

Go through the items and report each one's pest or weed control at 62.5 g/ha.
1. CN1C[C@H](c2cccc(C(F)(F)F)c2)[C@@H](C(=O)Nc2cccnc2F)C1=O (racemic)
2. CCOc1cc(C2CN(C)C(=O)C2C(=O)Nc2cccc(F)c2F)cc(C(F)(F)F)c1 (stereo not shown)
3. CN1CC(c2cc(C#N)cc(OC(F)(F)F)c2)C(C(=O)Nc2cccc(F)c2F)C1=O (stereo not shown)
4. CN1C[C@H](c2ccc(C(F)F)cc2)[C@@H](C(=O)Nc2cccc(F)c2F)C1=O (racemic)
5. CN1CC(c2cc(F)c(Cl)c(F)c2)C(C(=O)Nc2cccc(F)c2F)C1=O (stereo not shown)

Ans:
1: 70; 2: 10; 3: 0; 4: 30; 5: 0
